Biological target: 5-hydroxytryptamine receptor 1A (Homo sapiens, UniProt P08908); further: assay procedure not described here
Sequence (P08908 whole entry): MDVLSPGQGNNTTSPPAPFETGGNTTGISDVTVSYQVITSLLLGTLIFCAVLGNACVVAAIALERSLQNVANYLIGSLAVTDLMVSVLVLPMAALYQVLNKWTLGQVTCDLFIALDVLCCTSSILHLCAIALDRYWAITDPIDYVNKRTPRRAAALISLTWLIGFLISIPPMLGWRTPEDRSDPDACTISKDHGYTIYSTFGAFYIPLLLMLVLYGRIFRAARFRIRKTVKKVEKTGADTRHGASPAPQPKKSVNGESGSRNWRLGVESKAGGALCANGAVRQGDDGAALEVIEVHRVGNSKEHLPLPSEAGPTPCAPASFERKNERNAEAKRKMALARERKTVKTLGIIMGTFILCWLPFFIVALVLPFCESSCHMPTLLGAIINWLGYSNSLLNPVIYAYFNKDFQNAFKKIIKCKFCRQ
quantity: AC50

Look at this molecule and give its reported AC50. CCCCCCOc1nsnc1C1=CCCN(C)C1 [XANOMELINE]
0.243 µM

Consider the molecule shown here: CCCCOC(=O)C(=O)[C@H]1[C@H](C)C[C@H]2[C@@H]3C[C@H](F)C4=CC(=O)C=C[C@]4(C)[C@H]3[C@@H](O)C[C@@]21C [FLUOCORTIN BUTYL] What is its recorded AC50?
> 30 µM

Please give the measured AC50 for this molecule: COCc1c(C(C)C)nc(C(C)C)c(/C=C/[C@@H](O)C[C@@H](O)CC(=O)O)c1-c1ccc(F)cc1 [CERIVASTATIN]
> 30 µM

All figures here come from ChEMBL document CHEMBL5291721.
